Target: UniProt:P35916
Sequence (P35916 whole entry): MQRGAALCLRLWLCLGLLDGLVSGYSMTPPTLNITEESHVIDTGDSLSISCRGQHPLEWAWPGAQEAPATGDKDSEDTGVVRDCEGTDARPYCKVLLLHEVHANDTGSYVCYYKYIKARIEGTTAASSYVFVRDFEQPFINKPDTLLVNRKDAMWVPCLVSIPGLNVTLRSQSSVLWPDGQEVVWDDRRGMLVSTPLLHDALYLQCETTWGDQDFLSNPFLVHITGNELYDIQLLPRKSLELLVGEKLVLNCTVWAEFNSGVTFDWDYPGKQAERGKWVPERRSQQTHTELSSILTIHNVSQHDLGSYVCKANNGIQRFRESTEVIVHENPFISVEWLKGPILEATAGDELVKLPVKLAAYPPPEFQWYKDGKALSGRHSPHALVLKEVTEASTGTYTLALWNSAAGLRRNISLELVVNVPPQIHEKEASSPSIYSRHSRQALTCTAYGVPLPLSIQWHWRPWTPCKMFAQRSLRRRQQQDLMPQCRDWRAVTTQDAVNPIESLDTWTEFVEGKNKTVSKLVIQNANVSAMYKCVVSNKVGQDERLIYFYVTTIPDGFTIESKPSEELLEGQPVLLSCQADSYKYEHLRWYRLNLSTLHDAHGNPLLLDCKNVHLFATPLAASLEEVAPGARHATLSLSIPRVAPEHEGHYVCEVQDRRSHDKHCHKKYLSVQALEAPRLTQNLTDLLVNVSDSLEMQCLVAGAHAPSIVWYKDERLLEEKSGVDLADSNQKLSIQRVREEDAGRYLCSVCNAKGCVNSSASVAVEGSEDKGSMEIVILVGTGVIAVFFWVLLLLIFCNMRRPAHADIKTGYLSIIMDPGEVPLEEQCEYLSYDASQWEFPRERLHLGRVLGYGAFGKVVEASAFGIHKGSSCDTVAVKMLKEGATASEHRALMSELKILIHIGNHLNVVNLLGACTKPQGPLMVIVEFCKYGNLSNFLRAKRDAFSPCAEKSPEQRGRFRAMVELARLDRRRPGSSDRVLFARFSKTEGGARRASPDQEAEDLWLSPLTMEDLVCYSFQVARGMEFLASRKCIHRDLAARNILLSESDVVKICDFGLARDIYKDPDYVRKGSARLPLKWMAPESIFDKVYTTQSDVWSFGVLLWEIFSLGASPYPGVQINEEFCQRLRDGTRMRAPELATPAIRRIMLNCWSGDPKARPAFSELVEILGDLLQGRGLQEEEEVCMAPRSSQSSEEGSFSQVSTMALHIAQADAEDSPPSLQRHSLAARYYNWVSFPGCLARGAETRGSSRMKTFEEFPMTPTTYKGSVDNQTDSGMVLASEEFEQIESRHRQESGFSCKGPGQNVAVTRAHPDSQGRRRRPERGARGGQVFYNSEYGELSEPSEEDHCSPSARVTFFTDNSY
outcome_measure: IC50

Qu. Can you look up the measured IC50 of NC(=O)c1ccccc1Sc1ccc2c(/C=C/c3cnn(CCCN4CCCC4)c3)n[nH]c2c1 [US20260049071, No. I-44] for me?
Ans. 10 to 100 nM
